Target: PI3K (p110γ) (Homo sapiens, UniProt P48736)
Sequence (P48736 whole entry): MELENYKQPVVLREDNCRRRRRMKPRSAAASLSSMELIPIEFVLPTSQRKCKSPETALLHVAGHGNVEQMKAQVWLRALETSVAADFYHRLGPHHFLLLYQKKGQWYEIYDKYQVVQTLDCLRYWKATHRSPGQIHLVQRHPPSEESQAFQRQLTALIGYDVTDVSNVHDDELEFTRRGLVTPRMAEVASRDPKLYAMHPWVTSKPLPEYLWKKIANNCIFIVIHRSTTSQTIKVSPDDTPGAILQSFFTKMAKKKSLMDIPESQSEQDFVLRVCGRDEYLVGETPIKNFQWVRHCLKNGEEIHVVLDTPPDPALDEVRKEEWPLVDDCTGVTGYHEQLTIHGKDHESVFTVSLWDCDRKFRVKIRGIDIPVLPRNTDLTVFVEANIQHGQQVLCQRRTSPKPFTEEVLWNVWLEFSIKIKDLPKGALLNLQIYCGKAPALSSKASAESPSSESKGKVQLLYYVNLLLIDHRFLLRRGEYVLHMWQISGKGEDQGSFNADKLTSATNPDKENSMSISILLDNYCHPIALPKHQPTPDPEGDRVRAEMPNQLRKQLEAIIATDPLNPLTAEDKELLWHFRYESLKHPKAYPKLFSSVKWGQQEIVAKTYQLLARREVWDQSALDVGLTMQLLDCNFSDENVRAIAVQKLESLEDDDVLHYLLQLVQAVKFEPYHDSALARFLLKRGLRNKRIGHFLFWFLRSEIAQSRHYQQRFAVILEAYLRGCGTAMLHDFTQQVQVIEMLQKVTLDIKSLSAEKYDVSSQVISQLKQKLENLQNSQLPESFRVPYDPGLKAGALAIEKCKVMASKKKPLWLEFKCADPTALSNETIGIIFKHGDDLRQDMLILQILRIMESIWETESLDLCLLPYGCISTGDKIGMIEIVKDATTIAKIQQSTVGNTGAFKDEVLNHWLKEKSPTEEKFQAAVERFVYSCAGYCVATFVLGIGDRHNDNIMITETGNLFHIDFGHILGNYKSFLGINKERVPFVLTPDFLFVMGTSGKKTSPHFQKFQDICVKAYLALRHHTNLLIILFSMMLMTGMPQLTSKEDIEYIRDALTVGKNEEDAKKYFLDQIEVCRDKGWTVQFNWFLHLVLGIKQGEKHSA
Test: PI3Kγ ADP-Glo kinase assay
Type: biochemical
Conditions: read-out: PI3Kγ Enzyme activity IC50
readout: IC50 (nM)
Reply with just the number (in nM).

Lab note: CCOc1c(C(C)c2nc(Br)c3c(N)nccn23)cc(Cl)c(C)c1-c1ccc(Cl)nc1 (centres unmarked) [Compound 26] gave IC50 of 500

Lab book: IC50 of CCOc1c([C@H](C)c2nc(Cl)c3c(N)nccn23)cc(Cl)c(F)c1-c1ccc(C(F)(F)F)nc1 [Compound 41A] noted as 730

Consider Cc1nc([C@@H](C)c2cc(Cl)c(F)c(-c3ccc(C(F)(F)F)nc3)c2OC(C)C)n2ccnc(N)c12 [Compound 58] . Its measured IC50 is 13000

Just so you know, measured IC50 for Cc1c(Cl)cc([C@H](C)c2nc(Br)c3c(N)nccn23)c(OC(C)C)c1-c1ccc(C(F)(F)F)nc1 [Compound 38A] came out at 740

// sample Cc1nc([C@@H](C)c2cc(Cl)c(F)c(-c3ccc(C(=O)NC4(C(=O)O)CC4)nc3)c2OC(C)C)n2ccnc(N)c12 [Compound 68] , its IC50 was 960

The recorded IC50 for entry COc1c(C(C)c2nc(Br)c3c(N)nccn23)cc(Cl)c(C)c1-c1ccc(Cl)nc1 (centres unmarked) [Compound 22] equals 760

Just so you know, measured IC50 for CCOc1c(C(C)c2nc(Br)c3c(N)nccn23)cc(Cl)c(C)c1-c1ccc(C)nc1 (centres unmarked) [Compound 7] came out at 200

What the record says about Cc1nc([C@@H](C)c2cc(Cl)c(F)c(-c3ccc(C(=O)N4CC(O)C4)nc3)c2OC(C)C)n2ccnc(N)c12 [Compound 63] : IC50 is 2400

Briefly, IC50 measured for Cc1c(Cl)cc(C(C)c2nc(Br)c3c(N)nccn23)c(OC(C)C)c1-c1ccc(C(F)(F)F)nc1 (centres unmarked) [Compound 38] : 2800

So, CC(C)Oc1c(C(C)c2nc(Cl)c3c(N)nccn23)cc(Cl)c(F)c1C1CNC(=O)C1 (single isomer, unassigned) [Compound 48A] ? Its IC50 was 800

Per the records, this molecule ( Cc1nc(C(C)c2cc(Cl)c(F)c(-c3ccc(C#N)nc3)c2OC(C)C)n2ccnc(N)c12 (single isomer, unassigned) [Compound 59A] ) has IC50 equal to 2700

According to the records, this molecule Cc1nc([C@@H](C)c2cc(Cl)c(F)c(-c3ccc(C(=O)NCCO)nc3)c2OC(C)C)n2ccnc(N)c12 [Compound 62] displays IC50 of 2600

Noted for CCOc1c(C(C)c2nc(Cl)c3c(N)nccn23)cc(Cl)c(F)c1-c1ccc(C(F)(F)F)nc1 (centres unmarked) [Compound 41] : its IC50 reads 2100

----------
Biological target: PI3K (p110γ) (Homo sapiens, UniProt P48736)
Assay: PI3Kγ ADP-Glo kinase assay
Assay type: biochemical
Conditions: read-out: PI3Kγ Enzyme activity IC50
readout: IC50 (µM)
Field format: number, assumed µM, no unit text.

Field: example entries. Status: answers known.
Cc1nc([C@@H](C)c2cc(Cl)c(F)c(-c3ccc(C(=O)NC4(CO)CC4)nc3)c2OC(C)C)n2ccnc(N)c12 [Compound 66]	2.6
CC(C)Oc1c(C(C)c2nc(Cl)c3c(N)nccn23)cc(Cl)c(F)c1C1CNC(=O)C1 (stereo not drawn) [Compound 48]	0.53

Noted IC50 for Cc1nc([C@@H](C)c2cc(Cl)c(F)c(-c3ccc(C(=O)N4CCC(O)CC4)nc3)c2OC(C)C)n2ccnc(N)c12 [Compound 61] , tested on PI3K (p110γ) (Homo sapiens, UniProt P48736): 3.8

Tested system PI3K (p110γ) (Homo sapiens, UniProt P48736); IC50 recorded for CCOc1c(C(C)c2nc(Cl)c3c(N)nccn23)cc(Cl)c(F)c1-c1ccc(C(=O)N(C)C)nc1 (stereo not drawn) [Compound 13] was 0.48

PI3K (p110γ) (Homo sapiens, UniProt P48736) assay, molecule COc1ccc(-c2c(C)c(Cl)cc(C(C)c3nc(Br)c4c(N)nccn34)c2OC)cn1 (stereo not drawn) [Compound 20] , recorded IC50 = 0.74

The molecule Cc1nc([C@@H](C)c2cc(Cl)c(F)c(-c3ccc(C(=O)N4CCC[C@H]4C(=O)O)nc3)c2OC(C)C)n2ccnc(N)c12 [Compound 67] , tested on PI3K (p110γ) (Homo sapiens, UniProt P48736), showed IC50 of 1.2

Field IC50 (system: PI3K (p110γ) (Homo sapiens, UniProt P48736)) for entry CCOc1c(C(C)c2nc(Cl)c3c(N)nccn23)cc(Cl)c(C)c1-c1ccc(OC)cc1 (stereo not drawn) [Compound 45] = 1.2

Entry Cc1nc([C@@H](C)c2cc(Cl)c(F)c(-c3ccc(C(=O)N4CCC(F)(F)CC4)nc3)c2OC(C)C)n2ccnc(N)c12 [Compound 71] ; assay system PI3K (p110γ) (Homo sapiens, UniProt P48736); IC50 recorded at 3.2

// returns IC50 for CCOc1c(C(C)c2nc(Cl)c3c(N)nccn23)cc(Cl)c(C)c1C1CNC(=O)C1 (stereo not drawn) [Compound 46] with PI3K (p110γ) (Homo sapiens, UniProt P48736); value = 0.92

Here CCCOc1c([C@H](C)c2nc(Cl)c3c(N)nccn23)cc(Cl)c(F)c1-c1ccc(C(F)(F)F)nc1 [Compound 42A] was tested on PI3K (p110γ) (Homo sapiens, UniProt P48736), and its IC50 came to 0.81

Per the reported PI3K (p110γ) (Homo sapiens, UniProt P48736) data, CCOc1c(C(C)c2nc(Cl)c3c(N)nccn23)cc(Cl)c(C)c1N1CCOCC1 (stereo not drawn) [Compound 51] has IC50 of 1.7

// assay PI3K (p110γ) (Homo sapiens, UniProt P48736), entry CCOc1c(C(C)c2nc(Cl)c3c(N)nccn23)cc(Cl)c(C)c1-c1ccc(=O)[nH]c1 (stereo not drawn) [Compound 15] , IC50 value = 0.32

Given the molecule CC(C)Oc1c(C(C)c2nc(Cl)c3c(N)nccn23)cc(F)c(Cl)c1-c1ccc(C(F)(F)F)nc1 (stereo not drawn) [Compound 35] and test system PI3K (p110γ) (Homo sapiens, UniProt P48736), the measured IC50 is 5.9

Tested on PI3K (p110γ) (Homo sapiens, UniProt P48736): CCOc1c(C(C)c2nc(Cl)c3c(N)nccn23)cc(Cl)c(C)c1-c1ccc(OC)nc1 (stereo not drawn) [Compound 29] . Observed IC50: 1.1

----------
Biological target: PI3K (p110β/p85α) (Homo sapiens, UniProt P42338)
Sequence (P42338 whole entry): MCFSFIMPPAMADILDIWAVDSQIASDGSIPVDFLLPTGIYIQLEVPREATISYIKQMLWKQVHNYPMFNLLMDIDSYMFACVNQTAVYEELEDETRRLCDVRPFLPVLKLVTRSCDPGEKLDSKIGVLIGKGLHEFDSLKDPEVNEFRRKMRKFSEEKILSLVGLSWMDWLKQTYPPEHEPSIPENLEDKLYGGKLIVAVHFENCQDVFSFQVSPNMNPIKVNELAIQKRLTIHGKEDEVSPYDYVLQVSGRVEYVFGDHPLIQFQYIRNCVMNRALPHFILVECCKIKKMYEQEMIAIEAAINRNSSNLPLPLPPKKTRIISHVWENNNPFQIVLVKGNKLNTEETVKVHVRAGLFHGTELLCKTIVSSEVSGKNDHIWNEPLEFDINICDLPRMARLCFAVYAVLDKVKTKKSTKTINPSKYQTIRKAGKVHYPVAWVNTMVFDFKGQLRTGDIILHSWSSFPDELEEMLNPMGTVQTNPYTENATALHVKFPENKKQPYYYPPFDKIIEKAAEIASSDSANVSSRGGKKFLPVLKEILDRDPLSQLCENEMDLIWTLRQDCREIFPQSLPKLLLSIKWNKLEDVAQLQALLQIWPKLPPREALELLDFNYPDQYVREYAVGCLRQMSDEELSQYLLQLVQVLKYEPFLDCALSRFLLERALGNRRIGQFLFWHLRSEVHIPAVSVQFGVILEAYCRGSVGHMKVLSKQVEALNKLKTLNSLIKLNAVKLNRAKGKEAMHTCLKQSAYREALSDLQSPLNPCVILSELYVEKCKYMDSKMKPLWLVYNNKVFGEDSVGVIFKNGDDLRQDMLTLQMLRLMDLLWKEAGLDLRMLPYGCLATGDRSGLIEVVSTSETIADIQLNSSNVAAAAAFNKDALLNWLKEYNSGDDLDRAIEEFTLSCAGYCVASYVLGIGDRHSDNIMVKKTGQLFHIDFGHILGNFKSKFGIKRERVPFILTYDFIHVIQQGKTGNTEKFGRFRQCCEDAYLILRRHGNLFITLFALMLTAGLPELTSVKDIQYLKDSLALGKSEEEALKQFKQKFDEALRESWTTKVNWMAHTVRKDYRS
Sequence (P27986 whole entry partner): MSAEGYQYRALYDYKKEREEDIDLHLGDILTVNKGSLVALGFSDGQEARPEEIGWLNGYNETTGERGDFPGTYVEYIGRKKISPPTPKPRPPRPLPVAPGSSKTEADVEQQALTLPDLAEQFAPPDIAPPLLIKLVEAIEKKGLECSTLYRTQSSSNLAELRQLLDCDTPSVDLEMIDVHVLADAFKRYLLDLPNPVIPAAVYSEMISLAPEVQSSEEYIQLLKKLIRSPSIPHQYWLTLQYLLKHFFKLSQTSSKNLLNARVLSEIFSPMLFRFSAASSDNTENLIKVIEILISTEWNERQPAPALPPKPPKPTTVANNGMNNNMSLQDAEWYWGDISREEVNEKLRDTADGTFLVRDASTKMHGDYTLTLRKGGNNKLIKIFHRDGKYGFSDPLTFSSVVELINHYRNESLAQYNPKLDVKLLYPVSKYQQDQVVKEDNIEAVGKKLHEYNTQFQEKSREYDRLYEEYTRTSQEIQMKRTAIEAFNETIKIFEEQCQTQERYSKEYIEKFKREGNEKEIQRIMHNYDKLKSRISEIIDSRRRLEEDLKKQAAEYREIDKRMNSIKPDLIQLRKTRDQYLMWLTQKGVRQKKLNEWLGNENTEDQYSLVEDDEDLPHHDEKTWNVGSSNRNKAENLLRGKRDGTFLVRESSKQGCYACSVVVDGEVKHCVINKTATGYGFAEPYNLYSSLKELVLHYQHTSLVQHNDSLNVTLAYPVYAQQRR
Assay: PI3Kβ ADP-Glo kinase assay
Type: biochemical
Settings: PI3Kβ Enzyme activity IC50
readout: IC50 (nM)
Reply with just the number (in nM).

Use the examples below as a reference point.
CC(C)Oc1c(C(C)c2nc(Cl)c3c(N)nccn23)cc(Cl)c(F)c1C1CNC(=O)C1 (single isomer, unassigned) [Compound 48B]	1200
CC(C)Oc1c([C@H](C)c2nc(Cl)c3c(N)nccn23)cc(Cl)c(F)c1-c1ccc(C(F)(F)F)nc1 [Compound 40A]	6800
CCOc1c(C(C)c2nc(Br)c3c(N)nccn23)cc(Cl)c(C)c1-c1ccc(OC)nc1 (centres unmarked)	930
COc1c(C(C)c2nc(Br)c3c(N)nccn23)cc(Cl)c(C)c1-c1ccc(C)nc1 (centres unmarked)	180

// moving on: another record for IC50
Form field IC50 for item CC(C)Oc1c([C@H](C)c2nc(Cl)c3c(N)nccn23)cc(Cl)c(F)c1-c1ccc(C(=O)N(C)C)nc1 [Compound 16A] on PI3K (p110β/p85α) (Homo sapiens, UniProt P42338): 870

----------
The following compounds are listed with their measured inhibition at 0.5 µM values.
Biological target: PI3K (p110γ) (Homo sapiens, UniProt P48736)
Test: PI3Kγ ADP-Glo kinase assay
Format: biochemical
Details: read-out: PI3Kγ max inhibition (%) at 0.5 μM

COc1c(C(C)c2nc(Br)c3c(N)nccn23)cc(Cl)c(C)c1-c1ccc(N2CCOCC2)nc1 (stereo not shown) [Compound 23]	-19%
COc1c(C(C)c2nc(Cl)c3c(N)nccn23)cc(Cl)c(C)c1-c1cccnc1 (stereo not shown) [Compound 6]	52%
COc1c(C(C)c2ncc3c(N)nccn23)cc(Cl)c(C)c1-c1cccnc1 (stereo not shown) [Compound 1]	-27%

Now, please, on to the next compound.
Kindly note the recorded inhibition at 0.5 µM for COc1c(C(C)c2nc(C)c3c(N)nccn23)cc(Cl)c(C)c1-c1cccnc1 (stereo not shown) [Compound 52] , which is -11%

----------
pIC50 values, listed per item
Target: recombinant PI3K (p110α/p85α) (Homo sapiens)
Sequence (P42336 whole entry): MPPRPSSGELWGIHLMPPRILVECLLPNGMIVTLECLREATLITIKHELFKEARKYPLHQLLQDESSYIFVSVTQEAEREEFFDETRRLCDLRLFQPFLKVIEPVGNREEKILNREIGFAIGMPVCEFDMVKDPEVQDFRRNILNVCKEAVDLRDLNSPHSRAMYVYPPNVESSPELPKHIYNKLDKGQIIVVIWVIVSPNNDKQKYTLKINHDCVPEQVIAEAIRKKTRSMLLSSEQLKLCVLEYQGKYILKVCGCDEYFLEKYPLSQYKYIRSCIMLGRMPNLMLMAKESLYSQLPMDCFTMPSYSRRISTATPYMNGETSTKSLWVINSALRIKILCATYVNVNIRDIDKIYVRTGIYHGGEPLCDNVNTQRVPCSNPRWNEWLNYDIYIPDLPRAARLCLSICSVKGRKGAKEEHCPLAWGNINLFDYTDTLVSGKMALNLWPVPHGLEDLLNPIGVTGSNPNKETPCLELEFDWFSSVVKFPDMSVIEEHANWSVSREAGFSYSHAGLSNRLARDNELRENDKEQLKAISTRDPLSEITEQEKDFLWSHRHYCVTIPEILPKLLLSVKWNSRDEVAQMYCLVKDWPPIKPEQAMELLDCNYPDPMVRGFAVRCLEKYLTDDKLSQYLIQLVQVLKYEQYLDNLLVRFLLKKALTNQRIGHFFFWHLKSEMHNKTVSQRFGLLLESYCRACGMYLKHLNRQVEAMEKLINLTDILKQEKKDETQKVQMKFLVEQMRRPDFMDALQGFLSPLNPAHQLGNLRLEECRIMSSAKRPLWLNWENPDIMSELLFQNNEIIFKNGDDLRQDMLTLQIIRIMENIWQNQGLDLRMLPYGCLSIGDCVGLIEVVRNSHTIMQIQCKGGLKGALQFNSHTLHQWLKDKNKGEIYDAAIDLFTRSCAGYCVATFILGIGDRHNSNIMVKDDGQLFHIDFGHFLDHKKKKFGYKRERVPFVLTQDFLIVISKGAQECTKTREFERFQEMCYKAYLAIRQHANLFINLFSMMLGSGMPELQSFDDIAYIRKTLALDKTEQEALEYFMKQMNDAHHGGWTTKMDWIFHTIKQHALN
Sequence (P27986 whole entry partner): as the sequence (P27986 whole entry partner) above
Experiment: PI3Kα ADP-Glo kinase assay
Type: biochemical
Conditions: read-out: PI3Kα Enzyme activity IC50
Convention used: pIC50 is expressed as -log10 of the molar concentration.

Example results:
COc1ccc(-c2c(C)c(Cl)cc(C(C)c3nc(Br)c4c(N)nccn34)c2OC)cn1 (stereo not shown) [Compound 20]	5.64
Cc1nc([C@@H](C)c2cc(Cl)c(F)c(-c3ccc(C(=O)NC4(CO)CC4)nc3)c2OC(C)C)n2ccnc(N)c12 [Compound 66]	5.39
CC(C)Oc1c(C(C)c2nc(Cl)c3c(N)nccn23)cc(Cl)c(F)c1C1CNC(=O)C1 (single isomer, unassigned) [Compound 48A]	5.32

pIC50 on recombinant PI3K (p110α/p85α) (Homo sapiens) for CCOc1c(C(C)c2nc(Cl)c3c(N)nccn23)cc(Cl)c(C)c1C1CNC(=O)C1 (stereo not shown) [Compound 46] is 5.25
